test system: 171881-019-R-J1-PDC tumor spheroid viability; experiment: Anticancer human tumor 171881-019-R-J1-PDC patient-derived invasive breast carcinoma cell line growth inhibition [PI3K]; details: second compound 1 µM; first compound 0.0316 µM; spheroids with HUVEC and MSC; active = viability on the fitted dose curve at most 10% of control; inactive = the rest
Possible outcomes: active, inactive

| compound | group |
| --- | --- |
| Cn1nccc1Nc1nccc(-c2ccn(C(CO)c3ccc(Cl)c(F)c3)c(=O)c2)n1 (stereo unspecified) + CC(Nc1ncnc2nc[nH]c12)c1cc2cccc(Cl)c2c(=O)n1-c1ccccc1 | inactive |
| CCN1CCN(Cc2ccc(Nc3ncc(F)c(-c4cc(F)c5nc(C)n(C(C)C)c5c4)n3)nc2)CC1 + CC(Nc1ccc2c(c1)OCCn1cc(N3C(=O)OCC3C(F)F)nc1-2)C(N)=O | inactive |
| Cn1ncnc1[C@H]1c2n[nH]c(=O)c3cc(F)cc(c23)N[C@@H]1c1ccc(F)cc1 + CC(Nc1ccc2c(c1)OCCn1cc(N3C(=O)OCC3C(F)F)nc1-2)C(N)=O | inactive |
| CCCS(=O)(=O)Nc1ccc(F)c(C(=O)c2c[nH]c3ncc(-c4ccc(Cl)cc4)cc23)c1F + CC(Nc1ccc2c(c1)OCCn1cc(N3C(=O)OCC3C(F)F)nc1-2)C(N)=O | inactive |
| CC1(C)CCC(Nc2ncc(C(F)(F)F)c(-c3c[nH]c4c(P(C)(C)=O)c(C#N)ccc34)n2)CN1 (stereo unspecified) + CC(Nc1ccc2c(c1)OCCn1cc(N3C(=O)OCC3C(F)F)nc1-2)C(N)=O | inactive |
| C[C@@H](NC(=O)c1ncnc(N)c1Cl)c1ncc(C(=O)Nc2cc(C(F)(F)F)c(Cl)cn2)s1 + CC(Nc1ncnc2nc[nH]c12)c1cc2cccc(Cl)c2c(=O)n1-c1ccccc1 | inactive |
| CC(Cn1ccc(-c2ccc(C#N)c(Cl)c2)n1)NC(=O)c1cc(C(C)O)[nH]n1 (stereo unspecified) + Cc1nc(NC(=O)N2CCCC2C(N)=O)sc1-c1ccnc(C(C)(C)C(F)(F)F)c1 | inactive |
| CC(C)n1nc(-c2ccc3oc(N)nc3c2)c2c(N)ncnc21 + CC(Nc1ncnc2nc[nH]c12)c1cc2cccc(Cl)c2c(=O)n1-c1ccccc1 | inactive |
| CC1(C)CCC(CN2CCN(c3ccc(C(=O)NS(=O)(=O)c4ccc(NCC5CCOCC5)c([N+](=O)[O-])c4)c(Oc4cnc5[nH]ccc5c4)c3)CC2)=C(c2ccc(Cl)cc2)C1 + CC(Nc1ncnc2nc[nH]c12)c1cc2cccc(Cl)c2c(=O)n1-c1ccccc1 | inactive |
| CCCS(=O)(=O)Nc1ccc(F)c(C(=O)c2c[nH]c3ncc(-c4ccc(Cl)cc4)cc23)c1F + COc1c(OCCCN2CCOCC2)ccc2c3n(c(=NC(=O)c4cnc(N)nc4)nc12)CCN3 | active |
| Cn1nccc1Nc1nccc(-c2ccn(C(CO)c3ccc(Cl)c(F)c3)c(=O)c2)n1 (stereo unspecified) + Cc1nc(NC(=O)N2CCCC2C(N)=O)sc1-c1ccnc(C(C)(C)C(F)(F)F)c1 | inactive |

====

test system: 171881-019-R-J1-PDC tumor spheroid viability; experiment: Anticancer human tumor 171881-019-R-J1-PDC cell line growth inhibition [PI3K]; conditions: second compound 1 µM; first compound 0.0316 µM; spheroids with HUVEC and MSC; active = viability on the fitted dose curve at most 10% of control; inactive = the rest;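 note: spheroids exposed to compound for 7 days before viability read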
Possible outcomes: active, inactive

| molecule | group |
| --- | --- |
| CC(C)n1nc(-c2ccc3oc(N)nc3c2)c2c(N)ncnc21 + Cc1nc(NC(=O)N2CCCC2C(N)=O)sc1-c1ccnc(C(C)(C)C(F)(F)F)c1 | active |
| C=CC(=O)N1CCN(c2nc(=O)n(-c3c(C)ccnc3C(C)C)c3nc(-c4c(O)cccc4F)c(F)cc23)C(C)C1 (stereo unspecified) + CC(Nc1ccc2c(c1)OCCn1cc(N3C(=O)OCC3C(F)F)nc1-2)C(N)=O | inactive |
| CC(C)n1nc(-c2ccc3oc(N)nc3c2)c2c(N)ncnc21 + COc1c(OCCCN2CCOCC2)ccc2c3n(c(=NC(=O)c4cnc(N)nc4)nc12)CCN3 | active |
| C#Cc1c(F)ccc2cc(O)cc(-c3ncc4c(N5CC6CCC(C5)N6)nc(OCC56CCCN5CC(F)C6)nc4c3F)c12 (stereo unspecified) + Cc1nc(NC(=O)N2CCCC2C(N)=O)sc1-c1ccnc(C(C)(C)C(F)(F)F)c1 | inactive |
| CCN1CCN(Cc2ccc(Nc3ncc(F)c(-c4cc(F)c5nc(C)n(C(C)C)c5c4)n3)nc2)CC1 + COc1c(OCCCN2CCOCC2)ccc2c3n(c(=NC(=O)c4cnc(N)nc4)nc12)CCN3 | active |
| CC(C)NCC(C(=O)N1CCN(c2ncnc3c2C(C)CC3O)CC1)c1ccc(Cl)cc1 (stereo unspecified) + CC(Nc1ncnc2nc[nH]c12)c1cc2cccc(Cl)c2c(=O)n1-c1ccccc1 | inactive |
| CCCS(=O)(=O)Nc1ccc(F)c(C(=O)c2c[nH]c3ncc(-c4ccc(Cl)cc4)cc23)c1F + Cc1nc(NC(=O)N2CCCC2C(N)=O)sc1-c1ccnc(C(C)(C)C(F)(F)F)c1 | inactive |
| CNC(=O)c1ccc(N2C(=S)N(c3ccc(C#N)c(C(F)(F)F)c3)C(=O)C2(C)C)cc1F + Cc1nc(NC(=O)N2CCCC2C(N)=O)sc1-c1ccnc(C(C)(C)C(F)(F)F)c1 | inactive |
| CC(Cn1ccc(-c2ccc(C#N)c(Cl)c2)n1)NC(=O)c1cc(C(C)O)[nH]n1 (stereo unspecified) + CC(Nc1ccc2c(c1)OCCn1cc(N3C(=O)OCC3C(F)F)nc1-2)C(N)=O | inactive |
| CC(C)NCC(C(=O)N1CCN(c2ncnc3c2C(C)CC3O)CC1)c1ccc(Cl)cc1 (stereo unspecified) + Cc1nc(NC(=O)N2CCCC2C(N)=O)sc1-c1ccnc(C(C)(C)C(F)(F)F)c1 | inactive |
| Cn1ncnc1[C@H]1c2n[nH]c(=O)c3cc(F)cc(c23)N[C@@H]1c1ccc(F)cc1 + Cc1nc(NC(=O)N2CCCC2C(N)=O)sc1-c1ccnc(C(C)(C)C(F)(F)F)c1 | inactive |
| Cn1ncnc1[C@H]1c2n[nH]c(=O)c3cc(F)cc(c23)N[C@@H]1c1ccc(F)cc1 + COc1c(OCCCN2CCOCC2)ccc2c3n(c(=NC(=O)c4cnc(N)nc4)nc12)CCN3 | active |
| CC1(C)CCC(Nc2ncc(C(F)(F)F)c(-c3c[nH]c4c(P(C)(C)=O)c(C#N)ccc34)n2)CN1 (stereo unspecified) + COc1c(OCCCN2CCOCC2)ccc2c3n(c(=NC(=O)c4cnc(N)nc4)nc12)CCN3 | active |
| C#Cc1c(F)ccc2cc(O)cc(-c3ncc4c(N5CC6CCC(C5)N6)nc(OCC56CCCN5CC(F)C6)nc4c3F)c12 (stereo unspecified) + COc1c(OCCCN2CCOCC2)ccc2c3n(c(=NC(=O)c4cnc(N)nc4)nc12)CCN3 | active |
| C#Cc1c(F)ccc2cc(O)cc(-c3ncc4c(N5CC6CCC(C5)N6)nc(OCC56CCCN5CC(F)C6)nc4c3F)c12 (stereo unspecified) + CC(Nc1ccc2c(c1)OCCn1cc(N3C(=O)OCC3C(F)F)nc1-2)C(N)=O | inactive |
| CNC(=O)c1ccc(N2C(=S)N(c3ccc(C#N)c(C(F)(F)F)c3)C(=O)C2(C)C)cc1F + COc1c(OCCCN2CCOCC2)ccc2c3n(c(=NC(=O)c4cnc(N)nc4)nc12)CCN3 | active |
| C=CC(=O)N1CCN(c2nc(=O)n(-c3c(C)ccnc3C(C)C)c3nc(-c4c(O)cccc4F)c(F)cc23)C(C)C1 (stereo unspecified) + Cc1nc(NC(=O)N2CCCC2C(N)=O)sc1-c1ccnc(C(C)(C)C(F)(F)F)c1 | inactive |
| CC(=O)c1c(C)c2cnc(Nc3ccc(N4CCNCC4)cn3)nc2n(C2CCCC2)c1=O + CC(Nc1ncnc2nc[nH]c12)c1cc2cccc(Cl)c2c(=O)n1-c1ccccc1 | inactive |
| C=CC(=O)N1CCN(c2nc(=O)n(-c3c(C)ccnc3C(C)C)c3nc(-c4c(O)cccc4F)c(F)cc23)C(C)C1 (stereo unspecified) + COc1c(OCCCN2CCOCC2)ccc2c3n(c(=NC(=O)c4cnc(N)nc4)nc12)CCN3 | active |
| CC1(C)CCC(Nc2ncc(C(F)(F)F)c(-c3c[nH]c4c(P(C)(C)=O)c(C#N)ccc34)n2)CN1 (stereo unspecified) + CC(Nc1ncnc2nc[nH]c12)c1cc2cccc(Cl)c2c(=O)n1-c1ccccc1 | inactive |
| CC1(C)CCC(Nc2ncc(C(F)(F)F)c(-c3c[nH]c4c(P(C)(C)=O)c(C#N)ccc34)n2)CN1 (stereo unspecified) + Cc1nc(NC(=O)N2CCCC2C(N)=O)sc1-c1ccnc(C(C)(C)C(F)(F)F)c1 | inactive |
